All figures here come from ChEMBL document CHEMBL1130256.

- experiment_notes: Amount of metabolites in the microsomal medium after 90 min incubation of BTCP (500 uM)
- Format: ADME, Microsome
- experimental_setup: microsomes, 1.5 h
endpoint_name: Amount (pmol)
One number for each entry, in pmol.

// solved cases for Amount follow
molecule: OC1(c2cc3ccccc3s2)CCCCC1
experimental_value: 141
--
molecule: OC1CCCN(C2(c3cc4ccccc4s3)CCCCC2)C1 (centres undefined)
experimental_value: 147

Proceeding to the next molecule to report its Amount.
-- ask # input molecule: OC1CCN(C2(c3cc4ccccc4s3)CCCCC2)CC1 ; wanted: its Amount
-- reply 615

====

- tgt: Sodium-dependent dopamine transporter (Rattus norvegicus, UniProt P23977)
- Sequence (P23977 whole entry): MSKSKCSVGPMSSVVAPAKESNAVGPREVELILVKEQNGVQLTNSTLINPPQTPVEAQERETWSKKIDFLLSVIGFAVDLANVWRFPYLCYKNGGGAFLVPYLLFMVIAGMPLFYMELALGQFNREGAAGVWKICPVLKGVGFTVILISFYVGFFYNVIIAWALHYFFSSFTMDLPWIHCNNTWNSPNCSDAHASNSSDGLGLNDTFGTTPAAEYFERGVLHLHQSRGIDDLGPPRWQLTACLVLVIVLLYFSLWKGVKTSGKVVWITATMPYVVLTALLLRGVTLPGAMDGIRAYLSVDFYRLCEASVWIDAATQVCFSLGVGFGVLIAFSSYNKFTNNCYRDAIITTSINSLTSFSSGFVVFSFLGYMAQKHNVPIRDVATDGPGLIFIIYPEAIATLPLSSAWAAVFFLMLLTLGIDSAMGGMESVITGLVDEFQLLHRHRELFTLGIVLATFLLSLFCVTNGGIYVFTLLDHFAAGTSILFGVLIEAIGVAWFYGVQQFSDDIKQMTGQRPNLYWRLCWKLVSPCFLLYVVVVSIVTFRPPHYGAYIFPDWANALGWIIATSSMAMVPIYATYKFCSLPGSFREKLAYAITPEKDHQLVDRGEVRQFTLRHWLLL
endpoint_name: IC50 (nM)
Answers are plain numbers, in nM.

-- ask # input molecule: OC1CCCN(C2(c3cc4ccccc4s3)CCCCC2)C1 (stereo unspecified) ; wanted: its IC50
-- reply 1.75
